biological target: murine A^k MHC class II allele (Mus musculus, UniProt P01910+P06343); construct: The A20 and CH27 B cell lymphoma lines express H-2^d and H-2^k alleles, respectively; endogenous in cells; host or cells: CH27 B cell lymphoma (mitomycin C-treated); assay: simultaneous assay, A^k allele (CH27 APC, 3A9 T hybridoma, HEL46-61); type: cell-based; settings: Table 2; 64 μM
Sequence (P01910 24-256): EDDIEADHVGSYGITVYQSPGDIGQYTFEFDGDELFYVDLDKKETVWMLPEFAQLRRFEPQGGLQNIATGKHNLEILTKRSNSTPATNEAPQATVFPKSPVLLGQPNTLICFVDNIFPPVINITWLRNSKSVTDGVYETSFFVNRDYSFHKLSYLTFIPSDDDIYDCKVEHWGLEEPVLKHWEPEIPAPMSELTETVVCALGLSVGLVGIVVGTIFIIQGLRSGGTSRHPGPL
Sequence (P06343 28-263): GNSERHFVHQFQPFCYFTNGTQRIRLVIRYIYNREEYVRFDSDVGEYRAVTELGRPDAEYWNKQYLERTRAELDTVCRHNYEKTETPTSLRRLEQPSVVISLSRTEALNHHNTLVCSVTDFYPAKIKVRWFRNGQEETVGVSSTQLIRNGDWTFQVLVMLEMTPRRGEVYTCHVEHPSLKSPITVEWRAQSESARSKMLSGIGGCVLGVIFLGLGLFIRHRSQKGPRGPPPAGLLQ
assay.endpoint: activity in simultaneous assay in the A^k system, in words

>>> measured_value("Ac-NLQLDSLRMKLPKSAK-NH2 [AE150]")
"inhibitory"
>>> measured_value("Ac-LQLDSLRMKLPKSAK-NH2 [AE151]")
"inhibitory"
>>> measured_value("Ac-QLDSLRMKLPKSAK-NH2 [AE152]")
"inhibitory"

src = patent US6835382B2
